Target: Bcl-xL
Test: Inhibition of GST fused Bcl-xL binding to biotinylated 16 mer Bak-BH3 peptide by HTRF-LANCE assay
Items are presented alongside their recorded pIC50.
Just the number, please; pIC50 means minus log10 of the concentration in mol/L.

State its pIC50 for this molecule: Cc1c(Br)c(C(=O)N(c2ccccc2)c2ccccc2)nn1-c1ccccc1C(=O)N1Cc2ccccc2C[C@H]1CO
5.62

Consider the molecule CC(=O)NC[C@@H]1Cc2ccccc2CN1C(=O)c1ccccc1-n1nc(C(=O)N(c2ccccc2)c2ccccc2)cc1C and give its recorded pIC50.
5.01

// fetch pIC50 given entry CCOC(=O)[C@@H]1Cc2ccccc2CN1C(=O)c1ccccc1-n1nc(C(=O)N(c2ccccc2)c2ccccc2)cc1C
4.74

Supply measured pIC50 of COC[C@@H]1Cc2ccccc2CN1C(=O)c1ccccc1-n1nc(C(=O)N(c2ccccc2)c2ccccc2)cc1C in your reply.
5.25

====

Molecular target: Bcl-xL
Test: Inhibition of GST fused Bcl-xL binding to biotinylated 16 mer Bak-BH3 peptide by HTRF-LANCE assay
pIC50 values for the compounds below.
In plain terms, pIC50 is the concentration in mol/L turned into minus its base-10 logarithm.

Please look at this compound and report its pIC50: CNC[C@@H]1Cc2ccccc2CN1C(=O)c1ccccc1-n1nc(C(=O)N(c2ccccc2)c2ccccc2)cc1C
4.90

Tell me its pIC50 given Cc1cc(C(=O)N(c2ccccc2)c2ccccc2)nn1-c1ccccc1C(=O)N1Cc2ccccc2C[C@H]1CN(C)C as the entry.
5.17

Assign pIC50 to the following record: Cc1cc(C(=O)N(c2ccccc2)c2ccccc2)nn1-c1ccccc1C(=O)N1Cc2ccccc2C[C@H]1CN
4.94

We now examine a further compound.
Retrieve pIC50 measured for Cc1c(Cl)c(C(=O)N(c2ccccc2)c2ccccc2)nn1-c1ccccc1C(=O)N1Cc2ccccc2C[C@H]1CO and print it.
5.64
